molecular target: Chk-1 kinase (Homo sapiens (Human), UniProt O14757); assay: Chk-1 Kinase Inhibiting Activity (33P-ATP filter assay, CHKtide substrate); assay type: biochemical; conditions: against Chk-1 kinase; read-out: IC50
Sequence (O14757 whole entry): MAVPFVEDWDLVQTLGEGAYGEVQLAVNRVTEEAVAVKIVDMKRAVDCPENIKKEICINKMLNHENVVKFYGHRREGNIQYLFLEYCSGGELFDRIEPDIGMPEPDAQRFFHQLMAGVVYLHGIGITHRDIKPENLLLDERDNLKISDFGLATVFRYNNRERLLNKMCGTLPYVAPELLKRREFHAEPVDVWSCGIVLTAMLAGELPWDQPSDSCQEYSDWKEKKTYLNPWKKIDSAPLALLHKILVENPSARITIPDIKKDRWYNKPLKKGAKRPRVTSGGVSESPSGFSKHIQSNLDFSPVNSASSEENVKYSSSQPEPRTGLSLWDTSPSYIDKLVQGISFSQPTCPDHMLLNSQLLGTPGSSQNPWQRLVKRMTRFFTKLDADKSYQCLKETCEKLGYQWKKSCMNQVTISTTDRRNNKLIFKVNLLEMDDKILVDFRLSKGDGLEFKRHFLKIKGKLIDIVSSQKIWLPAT
MEASURED METRIC: IC50 (nM)

MOLECULE: CCN1CCN(c2cc(F)c(-c3cc(Nc4cnc(C#N)cn4)n[nH]3)c(OC)c2)CC1 [Example 136]
ENDPOINT UNIT: nM
IC50: 0.053

[A] COc1cc(C2CCNCC2)c(F)cc1-c1cc(Nc2cnc(C#N)cn2)n[nH]1 [Example 58]
[B] COc1cc(O[C@@H]2CCN(C(C)C)C2)ccc1-c1cc(Nc2cnc(C#N)cn2)n[nH]1 [Example 95]
[C] CCN1CCC(CNc2ccc(-c3cc(Nc4cnc(C#N)cn4)n[nH]3)c(OC)c2)CC1 [Example 108]
[D] COc1cc(CNCCN2CCOCC2)ccc1-c1cc(Nc2cnc(C#N)cn2)n[nH]1 [Example 9]
INPUT: Order the items by recorded IC50; the first position goes to the largest value. Please respond with the labels ordered as the question requires.
OUTPUT: A, B, D, C
(A: 0.54 nM, B: 0.15 nM, D: 0.077 nM, C: 0.043 nM)
